Each record here notes measured O.D. 415.
- Test system: Fc region (Jackson ImmunoResearch Laboratories, Inc.) labeled with horseradish peroxidase (HRP)
- measurement-notes: ELISA of recombinant phages displaying polypeptides (Example 1, 6)
- Type: binding, human
- experimental-context: recombinant T7 phage displaying the polypeptide; absorbance at 415 nm; control 0.08
- Experimental: 6) In this section, it will be stated as an example that the binding activity of recombinant phages transformed by nucleic acids encoding the amino acid sequences represented by SEQ ID NOs: 2 to 9 and 11 to 19 was measured by Enzyme Linked Immuno-Sorbent Assay (ELISA). […] The measurement samples were poured to MEDISORP 96 well microplate (Nunc) and allowed to stand still for one hour to allow the phage to physically adsorb to the plate. […] Binding activity was detected through a color reaction. […]
Please reply with the number alone, leaving off any unit.

Req: Name the reported O.D. 415 value associated with the substance 6 (YDPWTGTWRSFIWGGGG; IgG binding peptide, sC12) [compound 6]
Resp: 0.149

Req: Name the reported O.D. 415 value associated with the substance 9 (YDPRTGTWRRSSLSYSG; IgG binding peptide, sA7) [compound 9]
Resp: 0.193

Req: Name the reported O.D. 415 value associated with the substance 5 (YDPGTGTWRSWLSFNVG; IgG binding peptide, E7) [compound 5]
Resp: 0.155

Req: Name the reported O.D. 415 value associated with the substance 7 (YDPRTGTWLLYASRLLG; IgG binding peptide, G3) [compound 7]
Resp: 0.214

Req: Name the reported O.D. 415 value associated with the substance 3 (YDPGTGTWRSYLRFGGG; IgG binding peptide, H3) [compound 3]
Resp: 0.278

Req: Name the reported O.D. 415 value associated with the substance 4 (YDPYTGTWRSSIWVLSG; IgG binding peptide, D5) [compound 4]
Resp: 0.165

Req: Name the reported O.D. 415 value associated with the substance 8 (YDPVTGTWTSSIASWMG; IgG binding peptide, G11) [compound 8]
Resp: 0.223

----------
- assayed-target: Fc region prepared by digesting human monoclonal antibody IgG with papain (Homo sapiens, UniProt P01857)
- Construct: The Fc region to be immobilized to a sensor chip was prepared, by digesting human monoclonal antibody IgG with papain; made in house; host or cells: papain digest of human monoclonal IgG (Pierce Fab Preparation Kit), then MabSelect SuRe, HiTrap DEAE and Superdex 200
- measurement-notes: Surface plasmon resonance, polypeptides on immobilized Fc region prepared from human monoclonal IgG (Example 2, 3) and 4); Example 8)
- Assay type: binding
- experimental-context: synthetic polypeptide; read-out: KD
Ends that are not written are not given here.
test-readout: pKd
To interpret pKd, take it as minus log10 of a concentration measured in moles per litre.

Req: Name the reported pKd value associated with the sequence DAAWHLGELVWATYYDPETGTWQPDWLYMTTR [SEQ ID NO: 24]
Resp: 6.92

----------
- assayed-target: human Fc region manufactured by Jackson ImmunoResearch Laboratories, Inc.
- measurement-notes: Surface plasmon resonance, synthetic polypeptides on immobilized human Fc region (Example 1, 4)
- Type: binding
- experimental-context: synthetic polypeptide, 25° C., HBS-T buffer pH 7.4; read-out: KD
test-readout: Kd (µM)
Report only the number, with the unit µM understood.

Req: Name the reported Kd value associated with the sequence RSSIAYGGG [SEQ ID NO: 22]
Resp: 110

----------
- Tested on: Fc region (Jackson ImmunoResearch Laboratories, Inc.) labeled with horseradish peroxidase (HRP)
- measurement-notes: ELISA of recombinant phages displaying polypeptides (Example 2, 6)
- Type: binding, human
- experimental-context: recombinant T7 phage displaying the polypeptide; absorbance at 415 nm; control 0.098
test-readout: O.D. 415
Please reply with the number alone, leaving off any unit.

> print(dat)
                                  substance  observed.value
1  67 (VPPRFSSSAQYDPETGTWYDAAWHLGELVWATYYDPETGTWEPDWQRMLGQ; IgG binding peptide, p14) [compound 67]            0.25
2  63 (SNFVRSPSAWYDPETGTWYDAAWHLGELVWATYYDPETGTWEPDWQRMLGQ; IgG binding peptide, p2_2) [compound 63]           0.272
3  57 (GPGISAFSPGRGVYDPETGTWYDAAWHLGELVWATYYDPETGTWEPDWQRMLGQ; IgG binding peptide, p17) [compound 57]           0.229
4  65 (GPYNIPDSAVYDPETGTWYDAAWHLGELVWATYYDPETGTWEPDWQRMLGQ; IgG binding peptide, p5) [compound 65]           0.291
5  70 (WMEFYPGRGVYDPETGTWYDAAWHLGELVWATYYDPETGTWEPDWQRMLGQ; IgG binding peptide, p26) [compound 70]           0.189

Req: Name the reported O.D. 415 value associated with the substance 80 (LIPPGGISPWYDPETGTWYDAAWHLGELVWATYYDPETGTWEPDWQRMLGQ; IgG binding peptide, p25_2) [compound 80]
Resp: 0.215

Req: Name the reported O.D. 415 value associated with the substance 69 (VVRVDHSSAVYDPETGTWYDAAWHLGELVWATYYDPETGTWEPDWQRMLGQ; IgG binding peptide, p20) [compound 69]
Resp: 0.201

Req: Name the reported O.D. 415 value associated with the substance 79 (GSCKFSSSCHYDPETGTWYDAAWHLGELVWATYYDPETGTWEPDWQRMLGQ; IgG binding peptide, p24_2) [compound 79]
Resp: 0.329
